- MEASUREMENT_NOTES: Cytotoxicity run with the Parainfluenza test

SMILES_INPUT: C[C@@H](NC(=O)c1ccc2cncc(Br)c2n1)c1ccccc1
CC50 (µg/mL): 10
--
SMILES_INPUT: O=C(NCCc1ccccc1)C1=Cc2ccncc2CC1
CC50 (µg/mL): 30

---

- Tested on: uninfected cells
- MEASUREMENT_NOTES: Cytotoxicity run with the Parainfluenza test
- SETTINGS: cytotoxicity, Parainfluenza test
QUANTITY_KIND: PARAINFLUENZA CC50 (µg/mL)

SMILES_INPUT: O=C(NCCc1c[nH]c2ccccc12)C1=Cc2ccncc2CC1
VALUE: 25

---

Below: a set of entries, each annotated with reported CC50.
- MEASUREMENT_NOTES: Cytotoxicity run with the Adenovirus test

SMILES_INPUT: C[C@@H](NC(=O)c1ccc2cncc(Br)c2n1)c1ccccc1
CC50, µg/mL: 8
--
SMILES_INPUT: O=C(NCCc1ccccc1)C1=Cc2ccncc2CC1
CC50, µg/mL: 30

---

- Tested on: uninfected cells
- MEASUREMENT_NOTES: Cytotoxicity run with the Adenovirus test
- SETTINGS: cytotoxicity, Adenovirus test
ADENOVIRUS CC50 by entry:

COMPOUND: O=C(NCCc1c[nH]c2ccccc12)C1=Cc2ccncc2CC1 [#68]
MEASUREMENT_UNITS: µg/mL
MEASUREMENT_QUALIFIER: =
ADENOVIRUS CC50: 30
//
COMPOUND: COc1ccccc1CNC(=O)C1=Cc2ccncc2CC1 [#32]
MEASUREMENT_UNITS: µg/mL
MEASUREMENT_QUALIFIER: =
ADENOVIRUS CC50: 80
//
COMPOUND: CC(C)Oc1ccccc1NC(=O)Nc1ccc2cnccc2n1 [#46]
MEASUREMENT_UNITS: µg/mL
MEASUREMENT_QUALIFIER: >
ADENOVIRUS CC50: 30

---

Collected PARAINFLUENZA CC50 values appear next to each entry.
- Tested on: uninfected cells

SMILES_INPUT: CC(C)Oc1ccccc1NC(=O)Nc1ccc2cnccc2n1
PARAINFLUENZA CC50: 30 µg/mL
//
SMILES_INPUT: CCCOc1ccccc1CNC(=O)c1ccc2cnccc2n1
PARAINFLUENZA CC50: 2 µg/mL
//
SMILES_INPUT: COc1ccccc1CNC(=O)C1=Cc2ccncc2CC1
PARAINFLUENZA CC50: 20 µg/mL

---

- MEASUREMENT_NOTES: Cytotoxicity run with the Rhinovirus test
Measured CC50, listed per entry for reference.

COMPOUND: O=C(NCCc1ccccc1)C1=Cc2ccncc2CC1 [#67]
CC50 (µg/mL): 40

COMPOUND: C[C@@H](NC(=O)c1ccc2cncc(Br)c2n1)c1ccccc1 [#66]
CC50 (µg/mL): 3

---

uninfected cells measurements of RSV CC50, listed per entry.

SMILES_INPUT: CC(C)Oc1ccccc1NC(=O)Nc1ccc2cnccc2n1
RSV CC50 (µg/mL): 30
//
SMILES_INPUT: O=C(NCCc1c[nH]c2ccccc12)C1=Cc2ccncc2CC1
RSV CC50 (µg/mL): 20
//
SMILES_INPUT: COc1ccccc1CNC(=O)C1=Cc2ccncc2CC1
RSV CC50 (µg/mL): 30
//
SMILES_INPUT: CCCOc1ccccc1CNC(=O)c1ccc2cnccc2n1
RSV CC50 (µg/mL): 3

---

What follows is a record of RV CC50 for uninfected cells.

SMILES_INPUT: CC(C)Oc1ccccc1NC(=O)Nc1ccc2cnccc2n1
MEASUREMENT_UNITS: µg/mL
MEASUREMENT_QUALIFIER: >
RV CC50: 30

SMILES_INPUT: CCCOc1ccccc1CNC(=O)c1ccc2cnccc2n1
MEASUREMENT_UNITS: µg/mL
MEASUREMENT_QUALIFIER: =
RV CC50: 4

SMILES_INPUT: O=C(NCCc1c[nH]c2ccccc12)C1=Cc2ccncc2CC1
MEASUREMENT_UNITS: µg/mL
MEASUREMENT_QUALIFIER: =
RV CC50: 10

SMILES_INPUT: COc1ccccc1CNC(=O)C1=Cc2ccncc2CC1
MEASUREMENT_UNITS: µg/mL
MEASUREMENT_QUALIFIER: =
RV CC50: 25

---

- MEASUREMENT_NOTES: Cytotoxicity run with the Influenza B test
- Format: cell-based

COMPOUND: C[C@@H](NC(=O)c1ccc2cncc(Br)c2n1)c1ccccc1 [#66]
MEASUREMENT_UNITS: µg/mL
MEASUREMENT_QUALIFIER: =
CC50: 18
--
COMPOUND: O=C(NCCc1ccccc1)C1=Cc2ccncc2CC1 [#67]
MEASUREMENT_UNITS: µg/mL
MEASUREMENT_QUALIFIER: >
CC50: 100

---

- Tested on: Influenza A
- MEASUREMENT_NOTES: microbe, parasite or virus in culture
- Assay type: cell-based

SMILES_INPUT: COc1ccccc1CNC(=O)C1=Cc2ccncc2CC1
MEASUREMENT_QUALIFIER: =
INFLUENZA A IC50 / µg/mL: 60

SMILES_INPUT: CCCOc1ccccc1CNC(=O)c1ccc2cnccc2n1
MEASUREMENT_QUALIFIER: =
INFLUENZA A IC50 / µg/mL: 5.6

SMILES_INPUT: CC(C)Oc1ccccc1NC(=O)Nc1ccc2cnccc2n1
MEASUREMENT_QUALIFIER: >
INFLUENZA A IC50 / µg/mL: 32

SMILES_INPUT: O=C(NCCc1c[nH]c2ccccc12)C1=Cc2ccncc2CC1
MEASUREMENT_QUALIFIER: =
INFLUENZA A IC50 / µg/mL: 2.1

---

// endpoint HSV-1 CC50 / system uninfected cells

COMPOUND: COc1ccccc1CNC(=O)C1=Cc2ccncc2CC1 [#32]
TESTED_TARGET: uninfected cells
MEASUREMENT_QUALIFIER: =
HSV-1 CC50, µg/mL: 14

COMPOUND: O=C(NCCc1c[nH]c2ccccc12)C1=Cc2ccncc2CC1 [#68]
TESTED_TARGET: uninfected cells
MEASUREMENT_QUALIFIER: =
HSV-1 CC50, µg/mL: 12

COMPOUND: CC(C)Oc1ccccc1NC(=O)Nc1ccc2cnccc2n1 [#46]
TESTED_TARGET: uninfected cells
MEASUREMENT_QUALIFIER: >
HSV-1 CC50, µg/mL: 100

COMPOUND: CCCOc1ccccc1CNC(=O)c1ccc2cnccc2n1 [#26]
TESTED_TARGET: uninfected cells
MEASUREMENT_QUALIFIER: =
HSV-1 CC50, µg/mL: 3.2

---

- MEASUREMENT_NOTES: Cytotoxicity run with the RSV test
QUANTITY_KIND: CC50 (µg/mL)

MOLECULE: O=C(NCCc1ccccc1)C1=Cc2ccncc2CC1 [#67]
QUANTITY_KIND: CC50
VALUE: 30

MOLECULE: C[C@@H](NC(=O)c1ccc2cncc(Br)c2n1)c1ccccc1 [#66]
QUANTITY_KIND: CC50
VALUE: 5

---

- System: uninfected cells
- MEASUREMENT_NOTES: Cytotoxicity run with the Influenza B test
- Assay type: cell-based

MOLECULE: O=C(NCCc1c[nH]c2ccccc12)C1=Cc2ccncc2CC1 [#68]
MEASUREMENT_UNITS: µg/mL
MEASUREMENT_QUALIFIER: =
INFLUENZA B CC50: 11
//
MOLECULE: CC(C)Oc1ccccc1NC(=O)Nc1ccc2cnccc2n1 [#46]
MEASUREMENT_UNITS: µg/mL
MEASUREMENT_QUALIFIER: >
INFLUENZA B CC50: 22
//
MOLECULE: CCCOc1ccccc1CNC(=O)c1ccc2cnccc2n1 [#26]
MEASUREMENT_UNITS: µg/mL
MEASUREMENT_QUALIFIER: =
INFLUENZA B CC50: 5.6

---

- MEASUREMENT_NOTES: Cytotoxicity in PBMCs (anti-HIV tests)
- Format: cell-based
- SETTINGS: human; PBMCs, HIVROJO

COMPOUND: O=C(NCCc1ccccc1)C1=Cc2ccncc2CC1 [#67]
MEASUREMENT_UNITS: µg/mL
CC50: 74.7
--
COMPOUND: C[C@@H](NC(=O)c1ccc2cncc(Br)c2n1)c1ccccc1 [#66]
MEASUREMENT_UNITS: µg/mL
CC50: 27.3
